# measurement.target: T1, recombinant human domain 1-3His6 of the cation-independent mannose-6-phosphate receptor (human, UniProt P11717 41-467)
# T1 construct: Biotinylated (NHS-PEG4-biotin) for BLI; Glycosylated; also called hDom1-3His6; hCI-M6PRD1-D3
# experiment: ELISA on coated antigen (100 ng), anti-VHH-HRP, A450
EC50 (read off the curve) values for the binders below.

For orientation, consider the following solved cases.
- anti-CI-M6PR VHH 1H11 (VHH, made in E. coli WK6, His-tag purified) VHH: QVQLQESGGGLVQPGGSLRLSCAASGIIFSDNRMDWYRQAPGKQREWVATLASYGWKTYADSVKDRFTISRDNAKNTVNLYMNSLQPEDTAVYYCNSGQYWGQGTQVTVSS: ~0.4 nM
- anti-CI-M6PR VHH8 (VHH, His6-tagged (Pichia pastoris)) VHH: QVQLQESGGGLVQAGGSLRLSCEASGRTFNTYNWGWFRQAPGKEREFVAAIRWSSSKTSYADSVKGRFTISRDNAKNTIYLQMNSLKPEDTAVYYCAASIVDFTTNPSHFGSWGQGTQVTVSS: ~3 nM

Could you now consider this next binder?
EC50 (read off the curve) reported for this binder humanized VHH8 variant VHH8hWN (VHH, His6-tagged, made in HEK293S) VHH: DVQLVESGGGLVQPGGSLRLSCAASGRTFNTYNWGWFRQAPGKEREFVAAIRWSSSKTSYADSVKGRFTISRDNAKNTIYLQMNSLRPEDTAVYYCAASIVDFTTNPSHFGSWGQGTLVTVSS : ~3 nM
